src = ChEMBL document CHEMBL5608191

# Tested on: Human immunodeficiency virus 1
# ASSAY_PROCEDURE: Antiviral activity against HIV-1 harboring RT Y188L mutant infected in human MT4 cells assessed as protection against virus-induced cytopathic effect incubated for 5 days by MTT assay
# Assay type: functional, organism-based
# CONDITION_DETAILS: Human immunodeficiency virus 1, MT4, 120 h
Lab note - cut at 200 nM for EC50: Satisfied if strictly below, Not satisfied if not.

Query: In the record for `CCOC(=O)c1cnc(NC2CCN(Cc3cccc(C(=O)NC)c3)CC2)nc1Oc1c(C)cc(-c2ccc(C#N)cc2)cc1C` , is EC50 less than 200 nM?
Reply: Not satisfied

Query: I'd appreciate it if you could check whether `Cc1cn([C@H]2C[C@H](N=[N+]=[N-])[C@@H](CO)O2)c(=O)[nH]c1=O` has EC50 smaller than 200 nM.
Reply: Satisfied

Query: Determine if `CCOC(=O)c1cnc(NC2CCN(Cc3cccc(C(N)=O)c3)CC2)nc1Oc1c(C)cc(-c2ccc(C#N)cc2)cc1C` shows EC50 strictly lower than 200 nM.
Reply: Not satisfied

Query: Dear reviewer, please state whether `CCOC(=O)c1cnc(NC2CCN(Cc3ccc(C(N)=O)cc3)CC2)nc1Oc1c(C)cc(-c2ccc(C#N)cc2)cc1C` has EC50 strictly beneath 200 nM.
Reply: Satisfied

Query: Below 200 nM on EC50? Entry `CCOC(=O)c1cnc(NC2CCN(Cc3ccncc3)CC2)nc1Oc1c(C)cc(-c2ccc(C#N)cc2)cc1C`
Reply: Satisfied

Query: Strictly below 200 nM: is that where EC50 of `CCOC(=O)c1cnc(NC2CCN(Cc3ccc(S(C)(=O)=O)cc3)CC2)nc1Oc1c(C)cc(-c2ccc(C#N)cc2)cc1C` sits?
Reply: Satisfied

Query: Dear colleague, could you confirm whether EC50 of `CCOC(=O)c1cnc(NC2CCN(Cc3cccc(C#N)c3)CC2)nc1Oc1c(C)cc(-c2ccc(C#N)cc2)cc1C` falls below 200 nM? Thanks.
Reply: Not satisfied

Query: Please determine if `CCOC(=O)c1cnc(NC2CCN(Cc3ccc(F)cc3)CC2)nc1Oc1c(C)cc(-c2ccc(C#N)cc2)cc1C` is below 200 nM in terms of EC50.
Reply: Not satisfied

Query: Consider the molecule `CCOC(=O)c1cnc(NC2CCN(Cc3ccc(C(=O)NC)cc3)CC2)nc1Oc1c(C)cc(-c2ccc(C#N)cc2)cc1C` . Is its EC50 strictly less than 200 nM?
Reply: Satisfied

Query: Please indicate whether the reported EC50 of `CCOC(=O)c1cnc(NC2CCN(Cc3ccc(S(N)(=O)=O)cc3)CC2)nc1Oc1c(C)cc(-c2ccc(C#N)cc2)cc1C` is strictly below 200 nM.
Reply: Not satisfied

Query: Please state whether EC50 is below 200 nM for `Cc1cc(C#N)cc(C)c1Oc1nc(Nc2ccc(C#N)cc2)nc(N)c1Br`
Reply: Satisfied

Query: Say whether its EC50 is strictly beneath 200 nM. Entry: `Cc1ccnc2c1NC(=O)c1cccnc1N2C1CC1`
Reply: Not satisfied

Query: Input `CCOC(=O)c1cnc(NC2CCN(Cc3ccc(S(=O)(=O)NC)cc3)CC2)nc1Oc1c(C)cc(-c2ccc(C#N)cc2)cc1C` ; condition: EC50 strictly below 200 nM. Does it hold?
Reply: Satisfied

Query: Is it true that EC50 reported for `CCOC(=O)c1cnc(NC2CCN(Cc3ccccn3)CC2)nc1Oc1c(C)cc(-c2ccc(C#N)cc2)cc1C` is less than 200 nM?
Reply: Not satisfied

Query: Identify whether the molecule `CCOC(=O)c1cnc(NC2CCN(Cc3cccnc3)CC2)nc1Oc1c(C)cc(-c2ccc(C#N)cc2)cc1C` records EC50 below 200 nM.
Reply: Not satisfied
